Data provenance: patent US20250101041A1

target_system: human mAChR M4 (Homo sapiens)
Construct: expressed in transfected cells; host or cells: CHO-K1 (American Type Culture Collection), stably expressing hM4 and Gqi5
assay_procedure: mAChR M4 cell-based functional assay: calcium mobilization (Fluo-4, FDSS), potentiation of EC20 acetylcholine response in hM4-Gqi5 CHO-K1 cells
condition_details: CHO-K1, % ACh maximum at 30 μM; human M4
Lab note: class by Emax at 30 µM, see label 0 (below 80%), label 1 (80% to below 90%), label 2 (90% or more)

COc1ccc(-c2cnc3c(c2)CN(c2nn4c(=O)ccnc4cc2C)CC3)cn1 | label 2
Cc1cncc(-c2cnc3c(c2)CN(c2nn4c(=O)cc(C)nc4c(C)c2C)CC3)c1 | label 1
Cc1cc2nccc(=O)n2nc1N1CCc2ncc(-c3cccnc3)cc2C1 | label 1
COCc1cc(=O)n2nc(N3CCc4ncc(-c5ccccc5F)cc4C3)c(C)cc2n1 | label 1

**Query** Which bin should I file `Cc1cc(=O)n2nc(N3CCc4ncc(-c5ccc(C6CC6)nc5)cc4C3)c(C)cc2n1` under?
**Result** label 0

**Query** Which bin should I file `Cc1cc(=O)n2nc(N3CCc4ncc(-c5ccccc5OC(F)(F)F)cc4C3)c(C)cc2n1` under?
**Result** label 0

**Query** Which bin should I file `Cc1cc2nccc(=O)n2nc1N1CCc2ncc(Nc3ccc(C(C)C)nc3)cc2C1` under?
**Result** label 0

###

target_system: human mAChR M4 (Homo sapiens, UniProt P08173)
assay_procedure: mAChR M4 cell-based functional assay: calcium mobilization (Fluo-4, FDSS), potentiation of EC20 acetylcholine response in hM4-Gqi5 CHO-K1 cells
condition_details: potentiation of EC20 acetylcholine response, calcium mobilization, human M4
measured_quantity: EC50 (µM)
The answer is to be given in µM; state only the numeric part.

Here are 3 molecules together with their reported answers.
Cc1c(C2CC2)c(N2CCc3ncc(C(F)(F)F)cc3C2)nn2c(=O)ccnc12 | 2.45
Cc1ccc(-c2cnc3c(c2)CN(c2nn4c(=O)cc(C)nc4cc2C)CC3)cn1 | 0.127
Cc1cc(=O)n2nc(N3CCc4ncc(-c5ccc6nccn6c5)cc4C3)c(C)c(C)c2n1 | 0.556

Now take the following molecule into account.
**Query** Which EC50 is listed for `COCc1cc(=O)n2nc(N3CCc4ncc(-c5cnc(OC)cc5C)cc4C3)c(C)c(C)c2n1` ?
**Result** 1.75

###

target_system: human mAChR M4 (Homo sapiens)
Construct: expressed in transfected cells; host or cells: CHO-K1 (American Type Culture Collection), stably expressing hM4 and Gqi5
Sequence (P08173 1-479): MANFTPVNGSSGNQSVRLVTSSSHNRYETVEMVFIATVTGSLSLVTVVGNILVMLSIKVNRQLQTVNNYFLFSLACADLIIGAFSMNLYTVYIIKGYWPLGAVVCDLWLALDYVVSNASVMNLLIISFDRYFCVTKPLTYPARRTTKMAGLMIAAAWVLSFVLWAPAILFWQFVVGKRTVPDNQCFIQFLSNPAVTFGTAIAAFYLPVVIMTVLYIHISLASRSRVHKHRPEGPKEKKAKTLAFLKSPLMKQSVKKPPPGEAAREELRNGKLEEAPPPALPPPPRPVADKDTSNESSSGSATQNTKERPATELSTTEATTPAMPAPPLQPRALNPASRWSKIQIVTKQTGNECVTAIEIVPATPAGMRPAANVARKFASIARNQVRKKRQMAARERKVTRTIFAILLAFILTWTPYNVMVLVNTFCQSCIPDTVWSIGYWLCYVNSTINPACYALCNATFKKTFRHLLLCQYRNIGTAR
assay_procedure: mAChR M4 cell-based functional assay: calcium mobilization (Fluo-4, FDSS), potentiation of EC20 acetylcholine response in hM4-Gqi5 CHO-K1 cells
condition_details: CHO-K1, % ACh maximum at 30 μM; human M4
Here the recorded Emax at 30 µM is given for each entry.

Here are 3 molecules together with their reported answers.
Cc1cc(F)ccc1-c1cnc2c(c1)CN(c1nn3c(=O)ccnc3cc1C)CC2 | 99%
Cc1ncc(CNc2cnc3c(c2)CN(c2nn4c(=O)ccnc4cc2C)CC3)o1 | 105%
Cc1cc2nccc(=O)n2nc1N1CCc2ncc(-c3cncn3C)cc2C1 | 105%

**Query** Which Emax at 30 µM is listed for `Cc1ccncc1-c1cnc2c(c1)CN(c1nn3c(=O)ccnc3cc1C)CC2` ?
**Result** 86%

**Query** Which Emax at 30 µM is listed for `Cc1cc2nccc(=O)n2nc1N1CCc2ncc(N3CCOc4ncccc43)cc2C1` ?
**Result** 84%

**Query** Which Emax at 30 µM is listed for `COc1cc(C)c(-c2cnc3c(c2)CN(c2nn4c(=O)cc(C)nc4cc2C)CC3)cn1` ?
**Result** 89%

**Query** Which Emax at 30 µM is listed for `COCc1cc(=O)n2nc(N3CCc4ncc(-c5cc(F)ncc5F)cc4C3)c(C)cc2n1` ?
**Result** 77%

**Query** Which Emax at 30 µM is listed for `COc1ccncc1-c1cnc2c(c1)CN(c1nn3c(=O)ccnc3c(C)c1C)CC2` ?
**Result** 89%

**Query** Which Emax at 30 µM is listed for `Cc1cc(=O)n2nc(N3CCc4ncc(-c5ccnnc5)cc4C3)c(C)c(C)c2n1` ?
**Result** 92%

**Query** Which Emax at 30 µM is listed for `Cc1c(N2CCc3ncc(N4C[C@@H](C)O[C@@H](C)C4)cc3C2)nn2c(=O)cc(C(F)F)nc2c1C` ?
**Result** 96%

**Query** Which Emax at 30 µM is listed for `Cc1cc2nc(C)c(Cl)c(=O)n2nc1N1CCc2ncc(C(F)(F)F)cc2C1` ?
**Result** 86%

**Query** Which Emax at 30 µM is listed for `Cc1c(N2CCc3ncc(-c4cccc(F)c4)cc3C2)nn2c(=O)cc(C(F)F)nc2c1C` ?
**Result** 89%

**Query** Which Emax at 30 µM is listed for `Cc1cc2nccc(=O)n2nc1N1CCc2ncc(Nc3cnccc3Cl)cc2C1` ?
**Result** 96%

**Query** Which Emax at 30 µM is listed for `Cc1c(N2CCc3ncc(N4CCO[C@H](C)C4)cc3C2)nn2c(=O)ccnc2c1C` ?
**Result** 94%

**Query** Which Emax at 30 µM is listed for `Cc1cc(=O)n2nc(N3CCc4ncc(-c5ccccc5C)cc4C3)c(C)c(C)c2n1` ?
**Result** 109%

**Query** Which Emax at 30 µM is listed for `Cc1cc(C(F)(F)F)ncc1-c1cnc2c(c1)CN(c1nn3c(=O)ccnc3cc1C)CC2` ?
**Result** 95%

###

Here the recorded Emax at 30 µM is given for each entry.
target_system: human mAChR M4 (Homo sapiens, UniProt P08173)
Construct: expressed in transfected cells; host or cells: CHO-K1 (American Type Culture Collection), stably expressing hM4 and Gqi5
assay_procedure: mAChR M4 cell-based functional assay: calcium mobilization (Fluo-4, FDSS), potentiation of EC20 acetylcholine response in hM4-Gqi5 CHO-K1 cells
condition_details: CHO-K1, % ACh maximum at 30 μM; human M4

Here are 3 molecules together with their reported answers.
Cc1cc2nccc(=O)n2nc1N1CCc2ncc(N3CCOC(c4ccccn4)C3)cc2C1 (stereo not shown) | 76%
Cc1c(N2CCc3ncc(-c4ccc(C5CC5)nc4)cc3C2)nn2c(=O)cc(C(F)F)nc2c1C | 79%
Cc1cc2nccc(=O)n2nc1N1CCc2ncc(NCC(C)C)cc2C1 | 69%

Now take the following molecule into account.
**Query** Which Emax at 30 µM is listed for `Cc1nn(C)c(C)c1-c1cnc2c(c1)CN(c1nn3c(=O)cc(C(F)F)nc3c(C)c1C)CC2` ?
**Result** 86%

###

Here the recorded EC50 is given for each entry.
target_system: human mAChR M4 (Homo sapiens, UniProt P08173)
assay_procedure: mAChR M4 cell-based functional assay: calcium mobilization (Fluo-4, FDSS), potentiation of EC20 acetylcholine response in hM4-Gqi5 CHO-K1 cells
condition_details: potentiation of EC20 acetylcholine response, calcium mobilization, human M4
The answer is to be given in nM; state only the numeric part.

Here are 3 compounds together with their reported answers.
Cc1cc(=O)n2nc(N3CCc4ncc(-c5cnc6ccccc6c5)cc4C3)c(C)c(C)c2n1 | 749
Cc1ccc(F)cc1Nc1cnc2c(c1)CN(c1nn3c(=O)ccnc3cc1C)CC2 | 20
Cc1cc(=O)n2nc(N3CCc4ncc(-c5cnn(CC(F)(F)F)c5)cc4C3)c(C)cc2n1 | 356

**Query** Which EC50 is listed for `Cc1cc2nccc(=O)n2nc1N1CCc2ncc(-c3ccc4nccn4c3)cc2C1` ?
**Result** 699

###

target_system: human mAChR M4 (Homo sapiens, UniProt P08173)
Construct: expressed in transfected cells; host or cells: CHO-K1 (American Type Culture Collection), stably expressing hM4 and Gqi5
assay_procedure: mAChR M4 cell-based functional assay: calcium mobilization (Fluo-4, FDSS), potentiation of EC20 acetylcholine response in hM4-Gqi5 CHO-K1 cells
condition_details: CHO-K1, % ACh maximum at 30 μM; human M4
measured_quantity: Emax at 30 µM (%)
The answer is to be given in %; state only the numeric part.

**Query** Which Emax at 30 µM is listed for COCc1cc(=O)n2nc(N3CCc4ncc(-c5cnn(C6CC6)c5)cc4C3)c(C)c(C)c2n1 [Compound 1-263] ?
**Result** 86
